- Test system: CAMKK1 (Homo sapiens, UniProt Q8N5S9)
- Sequence (Q8N5S9 whole entry): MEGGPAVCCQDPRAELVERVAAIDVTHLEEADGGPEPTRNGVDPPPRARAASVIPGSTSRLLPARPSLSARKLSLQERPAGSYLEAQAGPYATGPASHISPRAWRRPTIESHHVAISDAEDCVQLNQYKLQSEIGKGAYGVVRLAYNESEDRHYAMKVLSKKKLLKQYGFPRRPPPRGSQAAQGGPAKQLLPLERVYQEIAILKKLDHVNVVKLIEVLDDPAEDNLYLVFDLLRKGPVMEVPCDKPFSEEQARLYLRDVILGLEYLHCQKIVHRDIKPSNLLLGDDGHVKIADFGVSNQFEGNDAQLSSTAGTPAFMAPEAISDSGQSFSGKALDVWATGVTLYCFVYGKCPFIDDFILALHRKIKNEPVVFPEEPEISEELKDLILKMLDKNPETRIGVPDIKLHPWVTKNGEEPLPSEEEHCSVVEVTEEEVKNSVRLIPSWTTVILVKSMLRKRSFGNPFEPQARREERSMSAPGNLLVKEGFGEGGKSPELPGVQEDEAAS
- Experiment notes: biochemical
- Design: species or system HEK293/K-562/placenta mixed human extract; Kinobeads chemoproteomic competition binding, quantified by TMT LC-MS/MS, dose response up to 20 uM
Quantity: IC50

**Q:** For COc1nc(N[C@H]2CC[C@H](NS(=O)(=O)CC(C)C)CC2)nc2[nH]nc(N3CCOC[C@H]3C)c12 [compound 39] , write its IC50.
**A:** ≥ 20 µM

----------
- Test system: UniProt P36507
- Sequence (P36507 whole entry): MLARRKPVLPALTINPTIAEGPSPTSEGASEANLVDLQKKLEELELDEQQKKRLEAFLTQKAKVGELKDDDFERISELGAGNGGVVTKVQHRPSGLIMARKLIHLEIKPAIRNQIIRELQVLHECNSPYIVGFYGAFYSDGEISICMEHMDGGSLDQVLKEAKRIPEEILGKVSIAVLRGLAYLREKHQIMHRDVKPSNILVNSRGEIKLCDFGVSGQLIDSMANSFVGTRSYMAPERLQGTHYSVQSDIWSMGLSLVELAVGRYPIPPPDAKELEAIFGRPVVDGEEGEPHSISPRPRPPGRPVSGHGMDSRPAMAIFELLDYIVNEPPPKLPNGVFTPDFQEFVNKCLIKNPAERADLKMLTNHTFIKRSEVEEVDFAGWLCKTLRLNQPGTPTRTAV
- Experiment notes: biochemical
- Set-up: species or system HEK293/K-562/placenta mixed human extract; Kinobeads chemoproteomic competition binding, quantified by TMT LC-MS/MS, dose response up to 20 uM
pIC50: −log10 of the molar value.
Quantity: pIC50

**Q:** For COc1ccccc1-c1n[nH]c2nc(N[C@H]3CC[C@H](NS(=O)(=O)CCC(F)(F)F)CC3)nc(OC)c12 , write its pIC50.
**A:** ≤ 4.70
